// provenance: patent US20230295310A1

Target: T1, human CD3 expressed on cells (human, UniProt P07766 23-207; P04234 22-171; P09693 23-182)
T1 construct: whole, on cells; CD3 complex on Jurkat cells and on human primary T cells
T1 sequence (P07766 23-207, chain 1 of 3): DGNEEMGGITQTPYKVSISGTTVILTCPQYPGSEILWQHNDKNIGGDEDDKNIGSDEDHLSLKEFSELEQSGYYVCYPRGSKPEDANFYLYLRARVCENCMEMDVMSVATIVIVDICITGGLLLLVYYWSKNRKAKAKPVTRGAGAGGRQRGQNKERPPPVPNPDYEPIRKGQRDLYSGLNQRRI
T1 sequence (P04234 22-171, chain 2 of 3): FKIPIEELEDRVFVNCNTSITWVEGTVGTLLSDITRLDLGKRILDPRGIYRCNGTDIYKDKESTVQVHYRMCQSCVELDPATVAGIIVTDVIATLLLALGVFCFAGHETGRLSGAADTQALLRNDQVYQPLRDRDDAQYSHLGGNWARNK
T1 sequence (P09693 23-182, chain 3 of 3): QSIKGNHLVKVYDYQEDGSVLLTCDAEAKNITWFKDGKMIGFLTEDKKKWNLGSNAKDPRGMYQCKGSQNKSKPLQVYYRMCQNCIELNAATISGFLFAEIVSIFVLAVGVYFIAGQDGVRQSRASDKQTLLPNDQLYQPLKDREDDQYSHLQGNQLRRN
Assay: flow cytometry, 25 nM
Description: Purified antibodies were confirmed to bind CD3 expressed on cells using the CytoFLEX S or LX flow cytometers (Beckman Coulter). Antibodies were diluted to 25 nM in FACS buffer (PBS+2% FBS) and were incubated with CD3-expressing cells for 30 minutes at 4° C. […] The median fluorescence intensity of the binding signal for each antibody was normalized to the isotype control to obtain a fold over isotype value. An antibody with a fold over isotype (FOI) of ≥10 was considered to be positive for binding.
endpoint name: Human primary T Cell Binding (FOI)

* mAb 97 (antibody, V domains shown) VH: QGQLVESGGGVVQPGRSLRLSCAASGFTFRGYGMHWVRQAPGKGLEWVAIIYYDGKNKYYADSVKGRFTISRDNSKNTLYLQMNNLRVEDTAVYYCARGGGYNWFDPWGQGTLVTVSS VL: DIQMTQSPSSLSASIGDRVTITCRASQSISNYLNWYQQKPGKAPKLLIYSASSLQSGVPSRFSGSGSGTDFTLTISNLQPEDFAIYYCQRSYSPPFTFGPGTKLDIR | 211
* mAb 74 (antibody, V domains shown) VH: EVQLVESGGGLVQPGRSLRLSCAASGFTFADYVMHWVRQAPGKGLEWVSGINWNNARIGYVGSVKGRFTISRDNAKNSLYLQMTSLRVEDTALYHCVREGNFDFWSAYYRGFLDLWGRGTLVTVSS VL: DIQMTQSPSSLSASVGDRVTITCRASQGIRSDLGWYQQKPGKAPKRLIYGASSLQGGVPSRFSGSGSGTEFTLTISSLQPEDFATYYCLQHNSYPYTFGQGTKLEIK | 146
* mAb 166 (antibody, V domains shown) VH: EVQLVESGGGLVKTGGSLRLSCVASGFSFKKAWMNWVRQAPGRGLEWVGRIKRNTDGGTTDYAAPVKGRFTLSRDDSKNMLYLQMNSLKTEDTAVYYCTTLDSSSLYVGYYYMDVWGKGTTVTVSS VL: DIQMTQSPSSVSASVGDRVTITCRASQDINNWLAWYQQKPGKAPKLLIYTASSLQSGVPSRFSGSGSGTDFTLTISSLQPEDFATYFCQQAHSLPITFGQGTRLEIT | 266
* mAb 126 (antibody, V domains shown) VH: EVQLVESGGGLVQPGRSLRLSCAASGFTFNDYTMHWVRQVPGKGLEWVSGISWNSGSIDYADSVKGRFTISRDNAKNSLYLQMNSLRAEDTALYYCAKDSSGYGYYYYYYMDVWGKGTTVTVSS VL: EIVMTQSPATLSVSPGERATLSCRASQSVSINLAWYQQKPGQAPRLLIYGASTRATGIPARFSGSGSGTEFTLTISSLQSEDFAVYYCQLYHNWPHFGQGTRLEIK | 97.6
* mAb 68 (antibody, V domains shown) VH: EVQLVDSGGGLVQPGGSLRLSCSGSGFTFSSYWMSWVRQAPGKGLEWVANIKQDGSQKYYVDSVKGRFTISRDNVKNSLYLQMNSLRVEDTAVYYCARDESSSWYWYFDLWGRGTLVTVSS VL: DIQMTQSPSTLSASVGDRVTLTCRASQNIVKWLAWYQQKPGKAPKLLIYKASSLESGVPSWFSGSGSGTEFTLTINSLQPDDFATYYCQQYYTYSRTFGQGTKVEIK | 117
* mAb 106 (antibody, V domains shown) VH: QVQLVESGGGVVQPGRSLRLSCAASGFTFRSYGMHWVRQAPGKGLEWVAIIWYNGNKKDYVDSVKGRFTISRDNSKNTLYLQMNSLRAEDTALYYCARGPGYNWFDPWGQGTLVTVSS VL: DIQMTQSPPSLSASVGDRVTITCRASQRISSYLNWYQQKPGKAPKLLIYAASSLQSGVPSRFSGSGSGTDFTLTISSLQPEDFATYYCQQSDSFPLTFGGGTKVEII | 210
* mAb 80 (antibody, V domains shown) VH: QVQLVQSGAEVKKPGASVKVSCKASGYTFAGYYLHWVRQAPGQGLEWMGWINPNSGRTESAQKFQGRVTLTRDTSITTAYMALSRLRSDDTAIYYCTRLEQLVFDYWGQGTLVTVSS VL: EIVLTQSPDFQSVTPKEKVTITCRASQSIGSSLHWYQQKPDQSPKLLIKYASQSFSGVPSRFSGSGSGTDFTLTINSLEAEDAATYYCHQSSSLPTFGQGTKVEIK | 0.905
* mAb 169 (antibody, V domains shown) VH: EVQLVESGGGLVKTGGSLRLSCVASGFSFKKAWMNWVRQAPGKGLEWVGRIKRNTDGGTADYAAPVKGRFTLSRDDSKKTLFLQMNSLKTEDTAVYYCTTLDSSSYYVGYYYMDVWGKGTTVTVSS VL: DIQMTQSPSSVSASVGDRVIITCRASQDINNWLAWYQQKPGKAPKLLIYTASSLQSGVPSRFSGSGSGTDFILTIGSLQPEDFATYYCQQAHSLPITFGQGTRLEIK | 264
* mAb 93 (antibody, V domains shown) VH: QVQLVESGGGVVQPGRSLRLSCAASGFTFRGYGMHWVRQAPGKGLEWVAIIYYNGNNKYYADSVKGRFTISRDNSKNTLYLQMNSLRAEDTAVYYCARGGGYNWFDPWGQGTLVTVSS VL: DIQMTQSPSSLSASVGDRVTITCRASQSISNYLNWYQQEPGKAPKLLIYTASSLQSGVPSRFSGSGSGTAFTLTISSLQPEDFAIYYCQRSSSPPFTFGPGTKLDIK | 198
* mAb 131 (antibody, V domains shown) VH: EVQLVESGGGLVKTGGSLRISCVASGFSFKKAWMNWVRQAPGKGLEWVGRIKRNTDGGTIDYAAPVKGRFSLSRDDSKNTLFLQMNSLKTEDTAVYFCTTLDSSSYYVGYYYMDVWGKGTTVTVSS VL: DIHMTQSPSSVSASVGDRVTITCRASQDINNWLAWYQQKPGKAPKLLIYTASSLQSGVPSRFSGSGSGTDFTLTISSLQPEDFATYFCQQAHSLPITFGQGTRLGIK | 171
